assay-protocol: Human HepG2 cell viability assay in 384 well format
Format: toxicity, cell-based
Design: dose 125 nL, time 70.5 hour; concentration not given beside the values
protocol-conditions: HepG2 cells, read-out: Inhibition
quantity-name: cytotoxicity at 70.5 h

1) Cc1ccc(CNCCN2CCOCC2)o1
8.67%
2) COC(=O)N1CCC(Nc2cccc(F)c2C#N)CC1
-3.28%
3) COCC(=O)N1CCCC1c1nccnc1Nc1ncccn1 (stereo unspecified)
-3.81%
4) CCn1cc(CN2CCN(CC(O)c3cc(C)ccc3C)CC2)c(C)n1 (stereo unspecified)
-1.03%

Consider the following items and state reported cytotoxicity at 70.5 h for each.
1. CCc1cnc(N2C[C@@H]3[C@@H](C(=O)NC(C)C)CCS(=O)(=O)[C@@H]3C2)nc1
2. NC(=O)c1ccc(NC(=O)N2CCN(c3cccs3)CC2)c(F)c1

A.
["0.524%", "-16.2%"]

Lab note: each molecule below needs its cytotoxicity at 70.5 h filled in.
1. Cc1noc(C)c1CN1CCO[C@H]2CN(CC3CC3)C[C@H]21
2. CC(=O)N1CC2(CCCN(Cc3ccc(Cl)cc3)C2)Cc2ccccc21 (stereo unspecified)
3. CCCC(=O)Nc1cccc(C(=O)N(C)CCCC2CCCO2)c1 (stereo unspecified)
4. CC(NCc1cccc(C#N)c1)c1ccccn1 (stereo unspecified)
5. Cc1[nH]nc2ncc(C(=O)N3CCN(C(C)(C)C)CC3)cc12

A.
["-28.9%", "5.61%", "2.48%", "-6.12%", "-0.02%"]

----------
assay-protocol: Human HepG2 cell viability assay in 384 well format
Format: toxicity, cell-based
Design: dose 125 nL, time 70.5 hour; concentration not given beside the values
protocol-conditions: HepG2 cells, read-out: Inhibition
So I've got a bunch of compounds here, and I need their cytotoxicity at 70.5 h values.
One number for each entry, in %.

1. COc1cccc(-c2cc(C(=O)NCCCn3cnnc3)[nH]n2)c1
-11.1
2. CC(Cn1ccnc1)NC(=O)N(C)Cc1ccsc1 (configuration not stated)
-27.1

Please supply cytotoxicity at 70.5 h for each of the following items, keeping them in order.
1. Cc1nc(-c2cccc(C#N)c2)nn1CC1(O)CCCCC1
2. Cc1cc(C(=O)N2C[C@@H]3COC[C@]3(c3nnc(C(C)C)o3)C2)on1
3. CC(C)NC(=O)C1CCC2(CCN(c3ncccn3)CC2)CO1 (configuration not stated)
4. COc1cc(-c2cc(N)ncn2)cc(OC)c1OC

A.
[3.88, -9.37, -9.99, -6.28]

Batch request: cytotoxicity at 70.5 h per item, same order as input.
1. Cc1nc(CNC(=O)NCCC2=CCCC2)oc1C
2. CN1CCc2c(C#N)c(NCCCO)n3cnnc3c2C1
3. CCc1noc(CCCC(=O)Nc2cc(C(F)(F)F)c[nH]c2=O)n1
4. CCOc1ccccc1C(C(=O)O)N(C)CC1CCOCC1 (configuration not stated)
5. Cc1ccc(C(=O)N2CCOCC2C(N)=O)c(F)c1 (configuration not stated)

A.
1. 7.64
2. -20.7
3. 0.169
4. 21.4
5. -8.13

Q. Given the compound `Cc1ccccc1C(=O)Nc1ccc([C@H]2OCC(=O)N(C)[C@@H]2CO)cc1` , write its reported cytotoxicity at 70.5 h.
A. -0.197

----------
assay-protocol: Human HepG2 cell viability assay in 384 well format
Assay type: toxicity, cell-based
Design: dose 125 nL, time 70.5 hour; concentration not given beside the values
protocol-conditions: HepG2 cells, read-out: Inhibition
Give cytotoxicity at 70.5 h for every item shown.
Numbers only, in %.

Examples from the recorded data:
1. CCOCC(=O)NC1(c2nc(C)cs2)CCCC1
-2.89
2. OCCOCc1nnn2c1CN(c1ncccn1)CCC2
8.18
3. CC(C)(C)c1noc(CNc2ccccc2N2CCC(O)CC2)n1
-8.28
4. COc1cc(CNc2cnn(CCN3CCOCC3)c2)cc(OC)c1
-20.4
5. Cc1ccc(-n2nnc(C(=O)NCC3CCCCC3)n2)cc1
-7.05

Your task in this section: give cytotoxicity at 70.5 h for each listed record.
1. Cc1nn(C)c2nc(N(CCN(C)C)C3CCCC3)sc12
2. Cc1nc(CN(C)S(=O)(=O)c2ccccc2Br)no1
3. Cc1nc(S(=O)(=O)N2CCSC3(CCCCC3)C2)cn1C
4. CCn1cc(CN2CCCN(C(=O)c3ccoc3C)CC2)cn1
5. CCc1nc(C)c(C2CC(=O)Nc3c2c(C(C)(C)C)nn3C)[nH]1 (stereo unspecified)
6. CC(=O)N1CCC(N2CCN3C(=O)N(c4ccccc4)C[C@H]3C2)CC1

A.
[2.63, -3.75, -4, -7.59, 0.46, 3.66]

# batch: return cytotoxicity at 70.5 h for each of the 7 compounds below
1. Cc1ccc(C(=O)N2CCC(O)(CN3CCc4ccccc4C3)C2)s1 (stereo unspecified)
2. O=C(OCCNc1ncccn1)c1ccc(Br)s1
3. Cc1oc(-c2cccs2)nc1C(=O)N1CCCC1Cn1cccn1 (stereo unspecified)
4. O=C(C1CC2(CCNCC2)CN1)N1CCN(c2ccccc2)CC1 (stereo unspecified)
5. O=C(Cn1c(=O)n(Cc2ccco2)c2ncccc21)NC1CCCC1
6. O=C(CC(F)(F)F)N1C[C@@H]2CC[C@H](C1)N(Cc1ccccc1)C2=O
7. O=C(Nc1nccs1)NC1CCN(Cc2ccccn2)CC1

A.
1. -2.78
2. -0.709
3. -6.8
4. 14.5
5. -7.12
6. -9.7
7. -12.4

For the 4 compounds below, give their cytotoxicity at 70.5 h values.
1. CC(=O)Nc1ccc2nc(-c3nccn3C[C@@H]3CCCO3)ccc2c1
2. Cc1cn2c(=O)c(-c3ccnc(N(C)C4CCCCC4)n3)cnc2s1
3. Cc1ccc(OCC(=O)N2C[C@@H]3CN(C)CCO[C@@H]3C2)cc1
4. O=C(Cc1cccc(O)c1)N1CCC2(CC1)c1ccccc1CC2O (stereo unspecified)

A.
[-11.8, -3.7, -7.41, -11.7]

# batch size: 6; output cytotoxicity at 70.5 h per entry
1. Cc1noc(C)c1CN1CC2(CCN(Cc3c[nH]cn3)CC2)CC1=O
2. CC(C)CCC(=O)N1CCC(c2nnc(CN(C)CCO)n2C)CC1
3. Cc1ccc(N2CCN(C3CCc4ccccc4C3)CC2)nn1 (stereo unspecified)
4. Cc1cc(C)n(C2CCN(C(=O)c3cn4ccsc4n3)C2)n1 (stereo unspecified)
5. CCn1ncc2c1C(COC)N(C(=O)c1cscn1)CC2 (stereo unspecified)
6. Cc1cc(C)n(CC2CCCN2C(=O)c2nccc3ccccc23)n1 (stereo unspecified)

A.
1: -2.12; 2: -2.45; 3: -8.25; 4: -7.56; 5: 6.98; 6: -0.984
